B1: VTI1B (parent)
chain: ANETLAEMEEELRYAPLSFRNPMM

Variants of: B1
EXPERIMENT_SUMMARY: protein stability index of a GFP-peptide fusion (GPS, HEK-293T) (PSI 1-6); higher = more stable;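 also: lentivirally expressed fusions sorted by FACS into six bins by GFP to DsRed ratio, PSI derived from sequencing read proportions per bin multiplied by bin number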
CONDITION_CONTEXT: c terminus: a fixed tail appended
READOUT_KIND: protein stability index
No unit in the answer, only the number.

Entry N2G — recorded protein stability index = 2.01

Per the records, this variant ( P16I ) has protein stability index equal to 2.43

Entry T4Q — recorded protein stability index = 2.54

Recorded result, E11D , protein stability index: 2.13

// field: protein stability index; key: M23I ; value = 2.04

Entry L12Y , protein stability index reported as 4.21

According to the records, this variant E3P displays protein stability index of 2.26

The reported value for M8Q in terms of protein stability index is 2.62

Reported protein stability index for E7R was 1.17

protein stability index reading for T4P : 2.41

protein stability index measured on M24L = 2.26

The variant identified as R20P registered its protein stability index at 3.62

Per the record, P16N has protein stability index of 3.15

For this variant ( S18Y ), measured protein stability index is 3.25

Data point: A15G ; protein stability index = 3.44

For reference, reported protein stability index for L12P stands at 2.95

Given item A1N , the value recorded as its protein stability index is 2.27

Summary for this variant, L5R : protein stability index is 2.14

Looking up A6Y , I found its protein stability index recorded as 2.18

Record R20C , field protein stability index: 2.35

Measured protein stability index of M23W : 2.13

Every entry's value here was drawn from the supplement of paper PMC10567573.
